Data origin, for the record: paper PMC10242637

Each record here notes measured IC50.
tested on: T. cruzi trypomastigotes (Y strain); assay: Anti-trypomastigote assay; assay type: cell-based; conditions: Trypanosoma cruzi, 24 h, read-out: IC50 (µM ± SD) T.c.T

Please review the following examples before continuing.
> print(dat)
                                   molecule                        target.entity   reading
1  COc1ccc(C(=O)N2CCN(Cc3ccccc3)CC2)cc1 [1b]  T. cruzi trypomastigotes (Y strain)  > 150 µM
2  O=C(Cn1ccnc1[N+](=O)[O-])NCc1ccccc1 [BZN, Benznidazole, reference compound]  T. cruzi trypomastigotes (Y strain)   12.3 µM
3  O=C(c1ccc(Cl)cc1)N1CCN(Cc2ccccc2)CC1 [1 g, 1‐benzyl‐4‐(4‐chlorobenzoyl)piperazine]  T. cruzi trypomastigotes (Y strain)  > 150 µM
4  COc1ccc(/C=C/C(=O)N2CCN(Cc3ccccc3)CC2)cc1 [2b]  T. cruzi trypomastigotes (Y strain)  > 150 µM
5  COc1cc(/C=C/C(=O)N2CCN(Cc3ccccc3)CC2)ccc1O [2a]  T. cruzi trypomastigotes (Y strain)  > 150 µM

Looking for the measured IC50 of COc1cc(C(=O)N2CCN(Cc3ccccc3)CC2)ccc1O [1a] , can you help?
> 150 µM

Looking for the measured IC50 of COc1ccc(C(=O)N2CCC(Cc3ccccc3)CC2)cc1 [1c, 4-Benzyl-1-(4-methoxybenzoyl)piperidine] , can you help?
65.3 µM

----------
experiment: Cytotoxicity against mammalian cells; assay type: cell-based; conditions: mouse, NCTC clone 929 (L929) fibroblasts
Each record here notes measured CC50 at 48 h.

Please review the following examples before continuing.
> print(dat)
                           structure.string   reading
1      COc1ccc(C(=O)N2CCN(Cc3ccccc3)CC2)cc1  > 200 µM
2  COc1cc(/C=C/C(=O)N2CCN(Cc3ccccc3)CC2)ccc1O  > 200 µM

As a next step, examine the molecule that follows.
Looking for the measured CC50 at 48 h of "COc1cc(C(=O)N2CCN(Cc3ccccc3)CC2)ccc1O" , can you help?
> 200 µM
